- Tested on: stress-induced gastric ulcer
- test summary: Protective effect on gastric ulcer induced by restraint plus water-immersion stress in rats
- Assay type: in vivo, rat (male Sprague-Dawley)
- particulars: 10 mg/kg p.o.; control distilled water (26.0 ± 2.2 mm); mean ± S.E.
measurement label: Ulcer index (mm)
Answers are plain numbers, in mm.

Answered examples (4):
[
  {
    "molecule": "CCn1c(=O)n(CCCCC(C)(C)O)c(=O)c2c1ncn2C",
    "Ulcer index [mm]": 6.5
  },
  {
    "molecule": "Cn1c(=O)n(CCCCC(C)(C)O)c(=O)c2[nH]cnc21",
    "Ulcer index [mm]": 7.5
  },
  {
    "molecule": "Cn1c(=O)n(CCCCC(C)(C)O)c(=O)c2c1ncn2CCC(O)CO (stereo not shown)",
    "Ulcer index [mm]": 17.8
  },
  {
    "molecule": "Cn1cnc2c1c(=O)n(CCCCC(C)(C)O)c(=O)n2C",
    "Ulcer index [mm]": 15.8
  }
]

Count: 3. Required value per item: Ulcer index.
1. CCCn1cnc2c1c(=O)n(CCCCCC(C)(C)O)c(=O)n2C
2. CCn1cnc2c1c(=O)n(CCCCCC(C)(C)O)c(=O)n2CC
3. CCn1c(=O)n(CCCCCC(C)(C)O)c(=O)c2c1ncn2C

16.0
5.0
10.6

---

Provide the recorded LD50 for the entries that follow.
- test summary: in vivo
- particulars: mouse, iv, mice, i.v., read-out: LD50 (intravenous)

[
  {
    "compound string": "CCn1c(=O)n(CCCCCC(C)(C)O)c(=O)c2c1ncn2C",
    "obs value": "100 to 200 mg/kg"
  },
  {
    "compound string": "CCCn1cnc2c1c(=O)n(CCCCCC(C)(C)O)c(=O)n2CC",
    "obs value": "> 200 mg/kg"
  }
]

// below: LD50 requested for another molecule
Noted for CCCn1cnc2c1c(=O)n(CCCCC(C)(C)O)c(=O)n2CC : its LD50 reads 100 to 200 mg/kg
